These records show MIC for Staphylococcus aureus AS1.72.
experimental.endpoint: MIC

{"test.smiles": "CC(C)C[C@H](NC(=O)[C@H](CC(C)C)NC(=O)CNC(=O)[C@H](Cc1ccccc1)NC(=O)[C@H](CCCN=C(N)N)NC(=O)[C@H](CC(C)C)NC(=O)[C@H](CCCCN)NC(=O)[C@H](CCCCN)NC(=O)[C@H](CC(C)C)NC(=O)[C@@H]1CCCN1C(=O)[C@H](CC(C)C)NC(=O)[C@@H](N)Cc1ccccc1)C(N)=O", "assay.result": "3.13 µM"}
{"test.smiles": "CC[C@H](C)[C@H](N)C(=O)N[C@@H](CC(C)C)C(=O)N1CCC[C@H]1C(=O)N[C@H](C(=O)N[C@@H](CC(C)C)C(=O)N[C@@H](CO)C(=O)N[C@@H](CC(C)C)C(=O)N[C@H](C(=O)NCC(=O)NCC(=O)N[C@@H](CC(C)C)C(=O)N[C@@H](CC(C)C)C(N)=O)[C@@H](C)CC)[C@@H](C)CC", "assay.result": "≥ 62.5 µM"}
{"test.smiles": "CC[C@H](C)[C@H](N)C(=O)N[C@@H](CCCCN)C(=O)N[C@@H](CCCCN)C(=O)N[C@H](C(=O)N[C@@H](CC(C)C)C(=O)N[C@@H](CO)C(=O)N[C@@H](CCCCN)C(=O)N[C@H](C(=O)N[C@@H](CCCCN)C(=O)N[C@@H](CCCCN)C(=O)N[C@@H](CC(C)C)C(=O)N[C@@H](CC(C)C)C(=O)N[C@@H](CCCCN)C(N)=O)[C@@H](C)CC)[C@@H](C)CC", "assay.result": "5 µM"}

---

// values below are reported MIC
System: Pseudomonas aeruginosa ATCC 27853
Experiment: ≥ marks a high value that may be exact or a test limit, other limits are often not marked, values filed in µg/mL are converted to µM
experimental.endpoint: MIC (µM)

{"test.smiles": "NC(=O)[C@H](Cc1ccccc1)NC(=O)[C@H](Cc1ccccc1)NC(=O)[C@H](Cc1ccccc1)NC(=O)[C@H](Cc1ccccc1)NC(=O)[C@@H]1CCCN1C(=O)[C@H](CCCN=C(N)N)NC(=O)[C@@H]1CCCN1C(=O)[C@H](CCCN=C(N)N)NC(=O)[C@@H]1CCCN1C(=O)[C@H](CCCN=C(N)N)NC(=O)[C@@H]1CCCN1C(=O)[C@H](CCCN=C(N)N)NC(=O)[C@@H](N)CCCN=C(N)N", "measurement.units": "µM", "reading.qualifier": "=", "assay.result": 40}
{"test.smiles": "CSCC[C@H](NC(=O)[C@H](CC(C)C)NC(=O)[C@H](CC(C)C)NC(=O)[C@H](CCCCN)NC(=O)[C@H](CCCN=C(N)N)NC(=O)[C@H](CCC(=O)O)NC(=O)[C@H](CC(C)C)NC(=O)[C@H](CC(C)C)NC(=O)[C@H](CO)NC(=O)[C@@H](N)CCSC)C(=O)N[C@@H](Cc1cnc[nH]1)C(=O)N[C@@H](Cc1ccccc1)C(=O)N[C@@H](CC(C)C)C(=O)N[C@@H](CCCN=C(N)N)C(=O)N[C@H](C(=O)O)C(C)C", "measurement.units": "µM", "reading.qualifier": "=", "assay.result": 4.24}
{"test.smiles": "CC(C)C[C@H](NC(=O)[C@@H](N)CCC(N)=O)C(=O)NCC(=O)N[C@@H](CCCCN)C(=O)N[C@@H](CCCCN)C(=O)N[C@@H](CCCCN)C(=O)N[C@@H](Cc1cnc[nH]1)C(=O)N[C@@H](CCCN=C(N)N)C(=O)N[C@@H](CCCN=C(N)N)C(=O)N[C@@H](CCCN=C(N)N)C(=O)N1CCC[C@H]1C(=O)N[C@@H](CO)C(=O)N[C@@H](CCCCN)C(=O)N[C@@H](CCCCN)C(=O)N[C@@H](CCCCN)C(=O)N[C@@H](CCCN=C(N)N)C(=O)N[C@@H](Cc1cnc[nH]1)C(=O)N[C@@H](Cc1c[nH]c2ccccc12)C(=O)O", "measurement.units": "µM", "reading.qualifier": ">", "assay.result": 128}
{"test.smiles": "CC[C@H](C)[C@H](NC(=O)[C@H](CCCN=C(N)N)NC(=O)[C@@H](N)CCCCN)C(=O)N[C@H](C(=O)N[C@@H](CCC(N)=O)C(=O)N[C@@H](CCCN=C(N)N)C(=O)N[C@@H](C)C(=O)N[C@@H](CCCCN)C(=O)N[C@@H](CC(=O)O)C(=O)N[C@@H](Cc1ccccc1)C(=O)N[C@@H](CC(C)C)C(=O)N[C@@H](CCCN=C(N)N)C(=O)O)C(C)C", "measurement.units": "µM", "reading.qualifier": "=", "assay.result": 40}
{"test.smiles": "CC[C@H](C)[C@@H]1NC(=O)CNC(=O)[C@H](CCCN=C(N)N)NC(=O)[C@H](Cc2ccc(O)cc2)NC(=O)[C@H](C)NC(=O)[C@H](C(C)C)NC(=O)[C@H](CCCN=C(N)N)NC(=O)[C@H](Cc2ccccc2)NC(=O)[C@@H](NC(=O)[C@H](Cc2c[nH]c3ccccc23)NC(=O)[C@@H](N)CCCCN)CSSC[C@@H](C(=O)N[C@@H](CCCN=C(N)N)C(=O)O)NC(=O)[C@H](CCCN=C(N)N)NC(=O)[C@H](CCCN=C(N)N)NC(=O)[C@H](Cc2ccc(O)cc2)NC(=O)[C@H](C)NC1=O", "measurement.units": "µM", "reading.qualifier": "=", "assay.result": 0.454}
